The measurements presented in this section are drawn from patent US20170355774A1.

Molecular target: T1, human GITR (amino acids M1-V241, NCBI Accession #NP_004186.1) expressed on cells (human, UniProt Q9Y5U5 26-241)
T1 sequence: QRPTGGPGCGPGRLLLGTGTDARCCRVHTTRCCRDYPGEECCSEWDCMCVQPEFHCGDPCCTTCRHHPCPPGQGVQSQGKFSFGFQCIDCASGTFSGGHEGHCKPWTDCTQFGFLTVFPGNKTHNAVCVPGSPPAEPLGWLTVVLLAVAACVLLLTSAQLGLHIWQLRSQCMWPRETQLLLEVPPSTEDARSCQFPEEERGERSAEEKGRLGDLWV
Assay: cell-based or functional assay
readout-name: IC50, blocking of hGITRL stimulation, NF-kB-Luc, non-anchored (nM)
Record the value in nM, omitting the unit from your answer.

// recorded IC50, blocking of hGITRL stimulation, NF-kB-Luc, non-anchored for H4H14525P (antibody, human IgG4, V domains shown, human IgG4 (H4H)) VH: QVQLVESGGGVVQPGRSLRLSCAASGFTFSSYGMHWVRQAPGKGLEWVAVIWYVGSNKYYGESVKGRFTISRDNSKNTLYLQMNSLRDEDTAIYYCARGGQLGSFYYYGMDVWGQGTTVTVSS VL: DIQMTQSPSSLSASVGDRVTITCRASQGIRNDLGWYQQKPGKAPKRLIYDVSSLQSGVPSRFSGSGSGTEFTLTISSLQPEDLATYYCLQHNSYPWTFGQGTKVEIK : 1.4

Input H4H14516P (antibody, human IgG4, V domains shown, human IgG4 (H4H)) VH: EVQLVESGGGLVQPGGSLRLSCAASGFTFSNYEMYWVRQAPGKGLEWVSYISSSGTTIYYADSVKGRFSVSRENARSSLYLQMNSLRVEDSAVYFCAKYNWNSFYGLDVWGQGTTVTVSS VL: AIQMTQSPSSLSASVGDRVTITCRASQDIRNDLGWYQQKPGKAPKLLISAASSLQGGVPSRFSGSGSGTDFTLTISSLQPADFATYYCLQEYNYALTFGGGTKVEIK . Output IC50, blocking of hGITRL stimulation, NF-kB-Luc, non-anchored: 2.3

Please fill in: IC50, blocking of hGITRL stimulation, NF-kB-Luc, non-anchored reported for H1H14486P (antibody, human IgG1, V domains shown, human IgG1 (H1H)) VH: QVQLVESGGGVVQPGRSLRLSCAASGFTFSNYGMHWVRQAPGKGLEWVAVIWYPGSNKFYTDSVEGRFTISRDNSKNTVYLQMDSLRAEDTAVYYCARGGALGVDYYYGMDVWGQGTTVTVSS VL: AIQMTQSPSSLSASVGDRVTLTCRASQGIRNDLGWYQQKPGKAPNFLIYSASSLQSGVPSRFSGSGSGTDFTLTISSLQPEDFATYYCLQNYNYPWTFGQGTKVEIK = 1.1

The binder listed as H4H14476P (antibody, human IgG4, V domains shown, human IgG4 (H4H)) VH: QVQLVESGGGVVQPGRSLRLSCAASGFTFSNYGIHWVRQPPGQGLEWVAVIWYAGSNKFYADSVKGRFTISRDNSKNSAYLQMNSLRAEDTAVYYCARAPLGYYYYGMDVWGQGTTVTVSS VL: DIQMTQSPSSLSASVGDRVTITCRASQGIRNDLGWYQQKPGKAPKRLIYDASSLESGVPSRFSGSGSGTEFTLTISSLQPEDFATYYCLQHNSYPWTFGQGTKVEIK shows IC50, blocking of hGITRL stimulation, NF-kB-Luc, non-anchored equal to 2.6

IC50, blocking of hGITRL stimulation, NF-kB-Luc, non-anchored recorded for this binder, H1H14503P (antibody, human IgG1, V domains shown, human IgG1 (H1H)) VH: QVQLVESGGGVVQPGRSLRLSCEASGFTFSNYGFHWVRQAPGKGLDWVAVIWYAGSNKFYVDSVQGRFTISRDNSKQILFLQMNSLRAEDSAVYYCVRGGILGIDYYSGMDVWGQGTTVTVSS VL: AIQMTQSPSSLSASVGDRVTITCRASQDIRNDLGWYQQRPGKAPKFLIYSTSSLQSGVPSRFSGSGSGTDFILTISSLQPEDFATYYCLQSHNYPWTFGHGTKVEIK , is 0.6

Noted for H1H14474P (antibody, human IgG1, V domains shown, human IgG1 (H1H)) VH: QVQLVESGGGVVQPGRSLRLSCAASGFTFSSYGMDWVRQAPGKGLEWVAVIWYPGSNKYYADSVKGRFTVSRDNSKNTLYLQMNSLRAEDTAVYYCARDGELGLDYYSGMDVWGQGTTVTVSS VL: DIQMTQSPSSLSASVGDRVTITCRASQGIRNDLNWYQQKPGKAPKRLINGASSLQSGVPSRFSGSGSGTEFTLTISSLQPEDFATYYCLQLNSYPRTFGQGTKVEIK : its IC50, blocking of hGITRL stimulation, NF-kB-Luc, non-anchored reads 0.8

// field: IC50, blocking of hGITRL stimulation, NF-kB-Luc, non-anchored; key: H1H14491P (antibody, human IgG1, V domains shown, human IgG1 (H1H)) VH: QVQLVESGGGVVQPGRSLRLSCVASGFTFSDYGMHWVRQAPGKGLEWVAVIWYEGSNKYYADSVTGRFTISRDNSKNTLFLQMNSLKAEDTAEYYCAKDGGQLAYQYYYGMDVWGQGTTVTVSS VL: AIQMTQSPSSLSASVGDRVTLTCRASQGIRNDLGWYQQKPGKAPKSLIYAASNLQSGVPSRFSGSGSGTDFTLTISSLQPEDSATYYCLQDYNYPRTFGQGTKVEIK ; value = 0.6

H4H14528P (antibody, human IgG4, V domains shown, human IgG4 (H4H)) VH: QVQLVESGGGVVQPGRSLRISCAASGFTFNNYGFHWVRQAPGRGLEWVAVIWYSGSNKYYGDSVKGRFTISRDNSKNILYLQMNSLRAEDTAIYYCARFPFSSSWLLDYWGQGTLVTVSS VL: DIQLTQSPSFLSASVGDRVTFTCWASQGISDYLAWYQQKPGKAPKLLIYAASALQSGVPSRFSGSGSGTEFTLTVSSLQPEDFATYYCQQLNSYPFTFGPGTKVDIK yielded IC50, blocking of hGITRL stimulation, NF-kB-Luc, non-anchored of 3.4

Kindly note the recorded IC50, blocking of hGITRL stimulation, NF-kB-Luc, non-anchored for H1H14495P (antibody, human IgG1, V domains shown, human IgG1 (H1H)) VH: QVQLVESGGGAVQPGTSLRLSCAASGFTFSSFGMHWVRQAPGKGLEWVSVIWYEGSNKYYADSVKGRFTISRDNSRNTLSLQMDSLRVEDTAVYYCARGGELGVNYYYDMDVWGQGTTVTVSS VL: DIQMTQSPSSLSASVGDRVTITCRASQDIKNDLGWFQQKAGKAPKRLFYATSSLQSGVPSRFSGSGSGTEFTLTISSLQPEDFATYYCLQVHSYPRTFGQGTKVEIK , which is 0.7

Entry under test: H4H14470P (antibody, human IgG4, V domains shown, human IgG4 (H4H)) VH: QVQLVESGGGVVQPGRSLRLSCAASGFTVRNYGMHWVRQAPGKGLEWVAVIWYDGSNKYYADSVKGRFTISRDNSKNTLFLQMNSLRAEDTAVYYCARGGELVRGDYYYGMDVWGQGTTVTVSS VL: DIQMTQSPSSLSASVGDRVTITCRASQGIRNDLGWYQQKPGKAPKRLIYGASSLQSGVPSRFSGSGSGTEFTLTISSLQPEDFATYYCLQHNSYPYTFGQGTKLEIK . Its IC50, blocking of hGITRL stimulation, NF-kB-Luc, non-anchored was 0.9
